Source of measurements: PubChem BioAssay

# method-summary: small-molecule microarray binders of probe aXIP, primary screen, biochemical, NeuroSMM set, 635/667 nm fluorescence (AID 1119);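 note: probe is the protein aXip251-270 applied at 1 µg/mL to compound-printed slides; binding of probe to printed compounds measured as 667 nm fluorescence plus signal to noise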
# test-parameters: higher = more signal, called active from +8 up or from −8 down
// not met strictly below 0.2 in composite Z-score; met otherwise

- CCCNC(=O)OC[C@H]1O[C@H](CCON=C(C)CCC(=O)OC[C@H]2O[C@H](C#Cc3ccccc3)C=C[C@@H]2Oc2ccc(C)cc2)C=C[C@@H]1Oc1ccc(OC)cc1: met
- CCOC(=O)[C@H](CC(C)C)NC(=O)CCC1CC(OC(=O)NCc2cccc3ccccc23)CC2(CCCC(COC(=O)NCc3ccccc3)O2)O1 (stereo partly drawn): not met
- CC(C)=NOC[C@@H](O)COCc1ccco1: met
- CCOC(=O)[C@H](Cc1ccccc1)NC(=O)CCC1CC(OC(=O)NCc2cccc3ccccc23)CC2(CCCC(COC(=O)NCCCN3CCCC3=O)O2)O1 (stereo partly drawn): not met
- Cc1cc2c(nc1C)CCCN2CC(C)ON=C[C@@H](C)[C@H](OCc1ccccc1)C(C)C (stereo partly drawn): met
- CC(C)=NOCc1ccc(-c2cn([C@@H]3COC[C@H]3O)nn2)cc1: met
- CCN1C(=O)[C@H]2[C@H]3[C@H](O)[C@H](O)CC(=NNC(=O)OCc4ccc(OC)cc4)[C@H]3CC[C@H]2C1=O: not met
- CO[C@@H]1COC(=O)CC=C[C@H](C)COC(=O)[C@H](C)NC(=O)CC=C[C@H]1C: met

###

# assayed-target: Left-right determination factor 2 (Homo sapiens) (UniProt O00292)
# Sequence (O00292 whole entry, looked up): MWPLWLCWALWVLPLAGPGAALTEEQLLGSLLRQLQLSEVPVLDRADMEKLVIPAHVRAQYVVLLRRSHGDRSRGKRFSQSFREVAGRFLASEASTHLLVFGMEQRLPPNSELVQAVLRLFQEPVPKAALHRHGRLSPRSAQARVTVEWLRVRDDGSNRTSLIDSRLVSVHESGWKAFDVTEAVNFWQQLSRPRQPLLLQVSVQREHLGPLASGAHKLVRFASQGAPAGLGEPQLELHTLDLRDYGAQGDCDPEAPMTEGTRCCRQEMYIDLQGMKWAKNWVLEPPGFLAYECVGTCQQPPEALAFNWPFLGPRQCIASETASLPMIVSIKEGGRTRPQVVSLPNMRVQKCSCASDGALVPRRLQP
# method-summary: LEFTY2 binders on small-molecule microarrays, primary screen, biochemical, small-molecule microarray, 635 nm fluorescence scan (AID 1110)
# test-parameters: LEFTY2 binding, higher = more signal
The following molecules are shown together with reported composite z-score values.
quantity-kind: composite z-score

- CCCNC(=O)OC[C@H]1O[C@H](CCON=C(C)CCC(=O)OC[C@H]2O[C@H](C#Cc3ccccc3)C=C[C@@H]2Oc2ccc(C)cc2)C=C[C@@H]1Oc1ccc(OC)cc1: 0.272
- CCOC(=O)NN=C1C[C@@H](O)[C@@H](O)[C@@H]2[C@@H]3C(=O)N(Cc4ccccc4)C(=O)[C@@H]3CC[C@@H]12: 0.349
- CC(C)CCN1CCc2nc(-c3ccccc3)c3c(c2C1)CO[C@@H](C)C3: 0.457
- CC(=O)OC[C@H]1O[C@H](C#CC(C)(C)C)C=C[C@@H]1OC(C)=O: 0.934
- C#CCCCON=C1C[C@@H](O)[C@@H](O)[C@@H]2[C@@H]3C(=O)N(C4CCCCC4)C(=O)[C@@H]3CC[C@H]12: 0.16
- CC(C)=NOC[C@@H](O)COCc1ccco1: -0.168
- CCN1C(=O)[C@H]2[C@H]3[C@H](O)[C@H](O)CC(=NOC)[C@@H]3CC[C@H]2C1=O: 0.256
- C[C@@H]1CC[C@@H](C(=O)O)N[C@H]1c1ccc(-c2ccco2)cc1: 0.88
- CCOC(=O)[C@H](Cc1ccccc1)NC(=O)CCC1CC(OC(=O)NCc2cccc3ccccc23)CC2(CCCC(COC(=O)NCCCN3CCCC3=O)O2)O1 (some centres not stated): 0.752
- C[C@@H](ON=C1[C@H]2CCn3c(=O)n(-c4ccccc4)c(=O)n3[C@H]2[C@H](O)[C@@H]2O[C@H]12)c1cn([C@H](CO)Cc2ccccc2)nn1: 0.605
- O=C(NN=C1C[C@@H](O)[C@@H](O)[C@@H]2[C@@H]3C(=O)N(Cc4ccc5c(c4)OCO5)C(=O)[C@@H]3CC[C@H]12)OCc1ccccc1: 0.227
- CC(C)CON=C1C[C@@H](O)[C@@H](O)[C@@H]2[C@@H]3C(=O)N(c4cccc(Oc5ccccc5)c4)C(=O)[C@@H]3CC[C@H]12: 0.432
- COc1ccc(COC(=O)NN=C2C[C@@H](O)[C@@H](O)[C@@H]3[C@@H]4C(=O)N(C(C)(C)C)C(=O)[C@@H]4CC[C@H]23)cc1: 0.0311
- CC(C)=CCCC(C)=CCON=C1C[C@@H](O)[C@@H](O)[C@@H]2[C@@H]3C(=O)N([C@@H](C)c4ccccc4)C(=O)[C@@H]3CC[C@H]12: 0.773
- CO[C@H]1COC(=O)[C@H](C)NC(=O)CC=C[C@@H](C)[C@H](OC)COC(=O)CC=C[C@@H]1C: 0.955
- CO[C@H]1COC(=O)CC=C[C@@H](C)COC(=O)[C@@H](OCc2ccccc2)C=C[C@@H]1C: 1.32
- CC(C)C(=O)N[C@@H]1CCCN1C(=O)C=Cc1ccccc1: 0.85
- CO[C@@H]1C=CCC(=O)N2CCC[C@H]2C(=O)OC[C@H](C)C(=O)OC[C@H]1C: 0.96
- COC(=O)[C@H](C)NC(=O)CCC1CC(OC(=O)NCCc2ccc(F)cc2)CC2(CCCC(COC(=O)NCCCN3CCCC3=O)O2)O1 (some centres not stated): 1.21
- CCOC(=O)CCN1C(=O)[C@H]2[C@H]3[C@H](O)[C@H](O)CC(=NNC(=O)OCC)[C@@H]3CC[C@H]2C1=O: 0.354
- C=C(C)C(=O)OC[C@@H]1CN2[C@@H](CC[C@@H](C)[C@@H]2c2ccc(Br)cc2)C(=O)O1: 0.891
- O=C1[C@H]2[C@H]3[C@H](O)[C@H](O)CC(=NOCc4ccccc4)[C@H]3CC[C@H]2C(=O)N1Cc1ccccc1: 0.552
